Origin of the recorded values: patent US10364256B2

Listed here: items and their measured pIC50.
# Measurement Target: Keap1 Kelch domain (321-609) / TAMRA-labeled 16mer NRF2 peptide (ETGE motif) (Homo sapiens)
# Construct: the Kelch domain (321-609) of Keap1 is used
# Sequence (Q14145 321-609): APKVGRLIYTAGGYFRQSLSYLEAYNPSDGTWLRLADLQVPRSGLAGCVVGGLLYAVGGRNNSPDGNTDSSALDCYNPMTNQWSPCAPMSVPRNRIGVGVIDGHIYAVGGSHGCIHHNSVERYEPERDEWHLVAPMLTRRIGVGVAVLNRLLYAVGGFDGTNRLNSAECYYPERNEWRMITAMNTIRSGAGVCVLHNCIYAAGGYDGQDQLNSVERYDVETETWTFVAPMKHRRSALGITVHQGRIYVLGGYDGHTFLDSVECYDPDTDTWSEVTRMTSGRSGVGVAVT
# Test Summary: NRF2-Keap1 FP Assay (Keap1 Kelch fluorescence polarization)
# Setup Conditions: 20 nM Keap1 (321-609), 8 nM Tamra labeled peptide
pIC50: −log10 of the molar value. Where a name gives a salt, the structure may show the parent alone.

Compound | pIC50
C[C@H](Oc1cccc(-c2cccc(-n3ncc(C(=O)O)c3[C@H]3C[C@@H]3c3c[nH]nn3)c2)c1)C1CCCCC1 | 5.00 to 6.00
C[C@H](Oc1cccc(-c2cccc(-n3ncc(C(=O)O)c3[C@@H]3C[C@H]3c3cn(C)nn3)c2)c1)C1CCCCC1 [Example 68, Sodium salt] | 7.00 to 8.00
Cn1cc([C@@H]2C[C@H]2c2c(C(=O)O)cnn2-c2cccc(-c3cccc(CN4Cc5ccccc5OC(C)(C)C4)c3)c2)nn1 (racemic) | 7.00 to 8.00

----------
# Measurement Target: Keap1 Kelch domain (321-609) / TAMRA-labeled 16mer NRF2 peptide (ETGE motif) (Homo sapiens)
# Construct: the Kelch domain (321-609) of Keap1 is used
# Test Summary: NRF2-Keap1 FP Assay (Keap1 Kelch fluorescence polarization)
# Setup Conditions: 20 nM Keap1 (321-609), 8 nM Tamra labeled peptide
pIC50: −log10 of the molar value.
As shown below, each of these molecules has a reported pIC50 value.
Recorded Endpoint: pIC50

Molecule | Recorded Endpoint | Endpoint Result
C[C@H](Oc1cccc(-c2cccc(-n3ncc(C(=O)O)c3[C@@H]3C[C@H]3c3cn(C4COC4)nn3)c2)c1)C1CCCCC1 (racemic) | pIC50 | 7.00 to 8.00
O=C(O)c1cnn(-c2cccc(-c3cccc(-n4ncc5c4CCCC5)c3)c2)c1C1CC1 | pIC50 | 6.00 to 7.00
CCC[C@@H]1CCCCN1C(=O)c1cccc(-c2cccc(-n3ncc(C(=O)O)c3C3CC3)c2)c1F [Example 54e] | pIC50 | 6.00 to 7.00
C[C@H]1Cc2ccc(Br)cc2S(=O)(=O)N(Cc2cccc(-c3cccc(-n4ncc(C(=O)O)c4[C@@H]4C[C@H]4c4cn(C)nn4)c3)c2F)C1 | pIC50 | 7.00 to 8.00

----------
Recorded IC50, one value per entry.
# Measurement Target: full length Keap1 protein / full length NRF2 protein (Homo sapiens, UniProt Q14145)
# Construct: full length NRF2 protein and full length Keap1 protein (Keap1 exists a dimer) are used; His
# Sequence (Q14145 whole entry): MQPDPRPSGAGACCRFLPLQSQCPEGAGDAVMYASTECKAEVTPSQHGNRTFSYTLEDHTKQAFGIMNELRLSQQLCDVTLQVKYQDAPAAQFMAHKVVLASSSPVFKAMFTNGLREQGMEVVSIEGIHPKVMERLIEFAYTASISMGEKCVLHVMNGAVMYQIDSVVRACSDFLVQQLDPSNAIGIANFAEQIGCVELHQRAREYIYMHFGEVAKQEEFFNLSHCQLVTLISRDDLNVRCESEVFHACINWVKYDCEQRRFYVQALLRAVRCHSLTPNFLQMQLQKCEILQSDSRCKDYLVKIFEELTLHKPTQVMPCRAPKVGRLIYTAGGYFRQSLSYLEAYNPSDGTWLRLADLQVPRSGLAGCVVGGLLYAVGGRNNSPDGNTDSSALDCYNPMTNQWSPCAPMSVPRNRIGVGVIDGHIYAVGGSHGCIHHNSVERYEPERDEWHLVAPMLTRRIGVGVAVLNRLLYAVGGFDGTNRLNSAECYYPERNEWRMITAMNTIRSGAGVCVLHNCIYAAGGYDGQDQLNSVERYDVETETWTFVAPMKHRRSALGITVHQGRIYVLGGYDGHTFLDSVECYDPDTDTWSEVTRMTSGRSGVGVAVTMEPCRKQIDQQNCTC
# Test Summary: NRF2-Keap1 TR-FRET Assay
# Type: binding
# Setup Conditions: 25 nM Keap1-FlagHis and 50 nM biotin-NRF2 added

Compound | IC50
O=C(O)c1cnn(-c2cccc(-c3cccc(-n4ncc5c4CCC5)c3)c2)c1C1CC1 [Example 61] | 1000 to 10000 nM
O=C(O)c1cnn(-c2cccc(-c3cccc(C(=O)N4CCCC(C(F)(F)F)C4)c3F)c2)c1C1CC1 (stereo not shown) [Example 18] | 1000 to 10000 nM
COC(CC1CCCCC1)c1cccc(-c2cccc(-n3ncc(C(=O)O)c3C3CC3c3cn(C)nn3)c2)c1 (stereo not shown) [Example 216] | 100 to 1000 nM
CC(Oc1cccc(-c2cccc(-n3ncc(C(=O)O)c3C3CC3)c2)c1)C1CCCCC1 (stereo not shown) [Example 60] | 10000 to 100000 nM
CCC[C@@H]1CCCCN1C(=O)c1cccc(-c2cccc(-n3ncc(C(=O)O)c3CCc3cn(C)nn3)c2)c1 [Example 58] | 100 to 1000 nM
CC(Oc1cccc(-c2cccc(-n3ncc(C(=O)O)c3C3CC3c3cn(C)nn3)c2)c1)C1CCCC1 (stereo not shown) [Example 228] | 100 to 1000 nM
CN(CC1CC1)C(=O)c1cccc(-c2cccc(-n3ncc(C(=O)O)c3[C@@H]3C[C@H]3c3cn(C)nn3)c2)c1F (racemic) [Example 265] | 10 to 100 nM
